biological target: S1P1 (Homo sapiens, UniProt P21453); assay: S1P receptor activity assay (calcium flux, FLIPR TETRA), S1P1; type: cell-based
Sequence (P21453 whole entry): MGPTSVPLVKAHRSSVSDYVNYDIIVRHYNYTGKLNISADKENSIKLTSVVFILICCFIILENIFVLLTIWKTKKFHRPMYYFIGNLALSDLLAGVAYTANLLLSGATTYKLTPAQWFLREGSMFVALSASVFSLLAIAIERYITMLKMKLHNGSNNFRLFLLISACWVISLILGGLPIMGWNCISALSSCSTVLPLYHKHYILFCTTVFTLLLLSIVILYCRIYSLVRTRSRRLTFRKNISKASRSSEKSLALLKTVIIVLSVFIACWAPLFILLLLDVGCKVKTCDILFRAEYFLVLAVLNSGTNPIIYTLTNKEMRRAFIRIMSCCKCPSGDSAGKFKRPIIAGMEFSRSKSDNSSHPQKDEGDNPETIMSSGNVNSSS
pIC50: −log10 of the molar value.
pIC50 by entry:

The examples below pair each entry with its known result.
CC[C@H]1CC[C@@H](Oc2ccc(C3=CCN(CCC(=O)O)CC3)cc2)CC1	< 5.30
O=C(O)CCCCN1CC=C(c2ccc(OC3CCC4(CCCC4)CC3)cc2)CC1	< 5.30
CC[C@H]1CC[C@@H](Oc2ccc(C3=CCN(CCCCC(=O)O)CC3)cc2)CC1	≥ 5.70
CC[C@H]1CC[C@H](Oc2ccc(C3=CCN(CCCC(=O)O)CC3)cc2)CC1	< 5.30
CC[C@H]1CC[C@H](Oc2ccc(C3=CCN(CCC(=O)O)CC3)cc2)CC1	< 5.30
CC[C@H]1CC[C@@H](Oc2ccc(C3=CCN(CCCC(=O)O)CC3)cc2)CC1	< 5.30
O=C(O)CCN1CC=C(c2ccc(OC3CCC4(CCCC4)CC3)cc2)CC1	< 5.30
CC[C@H]1CC[C@H](Oc2ccc(C3=CCN(CCCCC(=O)O)CC3)cc2)CC1	< 5.30

Please examine the following record next.
pIC50 reading for `CCCCCCCCOc1ccc(N2CCN(CC34CCC(C(=O)O)(CC3)CC4)CC2)cc1` : < 5.30

* * *

biological target: S1P5 (Homo sapiens); assay: S1P receptor activity assay (calcium flux, FLIPR TETRA), S1P5; type: cell-based; conditions: calcium flux, top concentration 10 μM; read-out: IC50 for S1P5
Sequence (Q9H228 whole entry): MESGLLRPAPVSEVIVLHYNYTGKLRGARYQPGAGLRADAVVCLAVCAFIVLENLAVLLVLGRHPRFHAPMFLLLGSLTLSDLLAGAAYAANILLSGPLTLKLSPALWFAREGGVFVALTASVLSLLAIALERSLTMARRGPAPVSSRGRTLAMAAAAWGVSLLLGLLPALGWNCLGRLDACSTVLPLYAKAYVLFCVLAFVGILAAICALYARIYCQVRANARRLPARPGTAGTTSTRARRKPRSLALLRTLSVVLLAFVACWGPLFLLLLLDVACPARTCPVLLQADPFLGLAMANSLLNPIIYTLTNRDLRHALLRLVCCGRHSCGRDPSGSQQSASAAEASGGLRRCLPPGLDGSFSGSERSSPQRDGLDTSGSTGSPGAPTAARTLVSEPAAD
Measured Quantity: IC50

The examples below pair each entry with its known result.
CCCCCCCCOc1cnc(N2CCN(CCC(=O)O)CC2)nc1 [Example 21]	> 5 µM
CC(C)(C)[C@H]1CC[C@H](Oc2ccc(N3CCN(CCCC(=O)O)CC3)cc2)CC1 [Example 18]	> 5 µM

IC50 reading for CC(C)(C)[C@H]1CC[C@H](Oc2ccc(C3CCN(CCCCC(=O)O)CC3)cc2)CC1 [Example 50] : > 5 µM

IC50 reading for CC[C@H]1CC[C@H](Oc2ccc(C3=CCN(CCCCC(=O)O)CC3)cc2)CC1 [Example 31] : > 5 µM

IC50 reading for CCCCCCCCOc1ccc(N2CCN(CCC(=O)O)CC2)nc1 [Example 22] : > 5 µM

IC50 reading for CCCCCCCCOc1ccc(C2CCCN(CCC(=O)O)C2)cc1 (centres unmarked) [Example 1] : > 5 µM

IC50 reading for CC(C)(C)[C@H]1CC[C@H](Oc2ccc(C3=CCN(CCC(=O)O)CC3)cc2)CC1 [Example 45] : > 5 µM

IC50 reading for CC(C)(C)[C@H]1CC[C@H](Oc2ccc(N3CCN(CCC(=O)O)CC3)cc2)CC1 [Example 17] : > 5 µM

IC50 reading for O=C(O)CCN1CCC(c2ccc(OC3CCC4(CCCC4)CC3)cc2)CC1 [Example 40] : ≤ 2 µM

IC50 reading for CC(C)(C)[C@H]1CC[C@H](Oc2ccc(C3=CCN(CCCCC(=O)O)CC3)cc2)CC1 [Example 49] : > 5 µM

IC50 reading for CC(C)(C)[C@H]1CC[C@H](Oc2ccc(C3CCN(CCCC(=O)O)CC3)cc2)CC1 [Example 48] : ≤ 2 µM

IC50 reading for CC[C@H]1CC[C@@H](Oc2ccc(C3=CCN(CCCC(=O)O)CC3)cc2)CC1 [Example 35] : > 5 µM

IC50 reading for CC[C@H]1CC[C@H](Oc2ccc(C3=CCN(CCC(=O)O)CC3)cc2)CC1 [Example 27] : > 5 µM

IC50 reading for CC(C)(C)[C@H]1CC[C@@H](Oc2ccc(C3CCCN(CCCC(=O)O)C3)cc2)CC1 (stereo in doubt) [Example 4] : > 5 µM

IC50 reading for CC(C)(C)[C@H]1CC[C@H](Oc2ccc(C3=CCN(CCCC(=O)O)CC3)cc2)CC1 [Example 47] : ≤ 2 µM

IC50 reading for CC(C)(C)[C@H]1CC[C@H](Oc2ccc(C3CCN(CCCC(=O)O)C3)cc2)CC1 (some centres unmarked) [Example 24] : > 5 µM

IC50 reading for CCCCCCCCOc1ccc(C2CCCN(C3CCC(C(=O)O)CC3)C2)cc1 (centres unmarked) [Example 26] : > 5 µM

* * *

Target: Human ATX protein (Homo sapiens)
Construct: made in house
Test: Autotaxin (ATX) FRET assay with FS-3 substrate
Type: biochemical
Text: ATX (Autotaxin) is a 125 KDa glycoprotein with lysophospholipase D (LPLD) activity that generates the bioactive lipid lysophosphatidic acid (LPA) from lysophosphatidylcholine (LPC). The ATX biochemical assay utilizes a FRET (fluorescence resonance energy transfer) technology platform. […] The reaction is monitored by a SpectraMax M5 (Molecular Devices, Sunnyvale, Calif.) with at excitation wavelength 485 nm and emission wavelength 535 nm. […]
Measured Quantity: IC50

CCCCCCCCOc1ccc(N2CCN(CCCC(=O)O)CC2)cc1	> 10 µM
CCCCCCCCOc1ccc(N2CCN(CC34CCC(C(=O)O)(CC3)CC4)CC2)cc1	≤ 5 µM
CCCCCCCCOc1ccc(N2CCN(CCC(=O)O)CC2)cc1	> 10 µM
O=C(O)CCN1CC=C(c2ccc(OC3CCC4(CCCC4)CC3)cc2)CC1	> 10 µM

IC50 reading for `CC[C@H]1CC[C@@H](Oc2ccc(C3=CCN(CCC(=O)O)CC3)cc2)CC1` : > 10 µM

* * *

biological target: S1P1 (Homo sapiens, UniProt P21453); experiment: S1P receptor activity assay (calcium flux, FLIPR TETRA), S1P1; format: cell-based; conditions: calcium flux, top concentration 10 μM; the >5 μM sentence says only 'for S1P1'; read-out: IC50 for S1P1 agonist activity
IC50 by entry:

The examples below pair each entry with its known result.
O=C(O)CCCN1CC=C(c2ccc(OC3CCC4(CCCC4)CC3)cc2)CC1	> 5 µM
CCCCCCCCOc1ccc(C2CCCN(C3CCC(C(=O)O)CC3)C2)cc1 (centres unmarked)	> 5 µM
CC(C)(C)[C@H]1CC[C@H](Oc2ccc(C3CCN(CCCC(=O)O)CC3)cc2)CC1	≤ 2 µM
CCCCCCCCOc1ccc(C2CCCC(N3CCC(C(=O)O)CC3)C2)cc1 (centres unmarked)	> 5 µM
CC[C@H]1CC[C@@H](Oc2ccc(C3CCN(CCCCC(=O)O)CC3)cc2)CC1	2 to 5 µM
CC(C)(C)[C@H]1CC[C@H](Oc2ccc(C3CCCN(C4CCC(C(=O)O)CC4)C3)cc2)CC1 (some centres unmarked)	> 5 µM

Please examine the following record next.
IC50 reading for CC(C)(C)[C@H]1CC[C@H](Oc2ccc(NC3CCCN(CCC(=O)O)C3)nc2)CC1 (relative stereo) : > 5 µM

* * *

target: Human ATX protein (Homo sapiens, UniProt Q13822); construct: made in house; assay: Autotaxin (ATX) FRET assay with FS-3 substrate; assay type: biochemical; settings: FS-3 2 μM, ATX 1.0 μg/mL, 2 hours at room temperature; read-out: IC50 (ATX)
pIC50: −log10 of the molar value.
Measured Quantity: pIC50

The examples below pair each entry with its known result.
O=C(O)CCCN1CC=C(c2ccc(OC3CCC4(CCCC4)CC3)cc2)CC1	≥ 5.30
CC[C@H]1CC[C@@H](Oc2ccc(C3=CCN(CCCCC(=O)O)CC3)cc2)CC1	≥ 5.30
CCCCCCCCOc1cnc(N2CCN(CCC(=O)O)CC2)nc1	5.00 to 5.30

Please examine the following record next.
pIC50 reading for `CC[C@H]1CC[C@H](Oc2ccc(C3CCN(CCCC(=O)O)CC3)cc2)CC1` : < 5.00

* * *

biological target: S1P1 (Homo sapiens); assay: S1P receptor activity assay (calcium flux, FLIPR TETRA), S1P1; type: cell-based
pIC50: −log10 of the molar value.
Measured Quantity: pIC50

The examples below pair each entry with its known result.
CC(C)(C)[C@H]1CC[C@H](Oc2ccc(C3=CCN(CCC(=O)O)CC3)cc2)CC1 [Example 45]	5.30 to 5.70
CC(C)(C)[C@H]1CC[C@H](Oc2ccc(C3=CCN(CCCC(=O)O)CC3)cc2)CC1 [Example 47]	≥ 5.70
CC(C)(C)[C@H]1CC[C@H](Oc2ccc(C3=CCN(CCCCC(=O)O)CC3)cc2)CC1 [Example 49]	< 5.30
CCCCCCCCOc1ccc(N2CCN(CCC(=O)O)CC2)cc1 [Example 14]	< 5.30

Please examine the following record next.
Form field pIC50 for item CCCCCCCCOc1ccc(N2CCN(CCCC(=O)O)CC2)cc1 [Example 15] on S1P1 (Homo sapiens): < 5.30
